# assayedSystem: hLRRC33-proTGFβ1 complex on cells (human, UniProt Q86YC3 19-692; P01137 30-390)
# Sequence (Q86YC3 19-692 limits assumed, chain 1 of 2): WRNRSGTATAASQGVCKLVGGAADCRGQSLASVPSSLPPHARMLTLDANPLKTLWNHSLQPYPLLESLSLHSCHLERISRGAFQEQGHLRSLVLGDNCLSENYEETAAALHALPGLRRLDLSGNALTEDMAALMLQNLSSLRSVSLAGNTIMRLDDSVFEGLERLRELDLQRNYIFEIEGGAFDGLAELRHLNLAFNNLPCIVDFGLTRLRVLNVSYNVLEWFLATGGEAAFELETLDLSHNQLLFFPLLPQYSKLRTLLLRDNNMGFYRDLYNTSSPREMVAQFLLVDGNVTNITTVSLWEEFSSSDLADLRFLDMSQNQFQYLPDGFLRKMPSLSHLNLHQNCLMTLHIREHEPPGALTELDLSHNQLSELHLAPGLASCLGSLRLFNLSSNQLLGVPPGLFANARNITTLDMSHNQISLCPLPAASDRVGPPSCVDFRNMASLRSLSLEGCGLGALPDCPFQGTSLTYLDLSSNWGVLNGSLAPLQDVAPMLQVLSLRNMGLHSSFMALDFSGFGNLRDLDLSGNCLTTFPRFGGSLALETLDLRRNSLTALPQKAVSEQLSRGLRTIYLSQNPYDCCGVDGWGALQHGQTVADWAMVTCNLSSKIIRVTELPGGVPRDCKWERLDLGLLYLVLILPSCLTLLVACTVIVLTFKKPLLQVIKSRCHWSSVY
# Sequence (P01137 30-390 limits assumed, chain 2 of 2): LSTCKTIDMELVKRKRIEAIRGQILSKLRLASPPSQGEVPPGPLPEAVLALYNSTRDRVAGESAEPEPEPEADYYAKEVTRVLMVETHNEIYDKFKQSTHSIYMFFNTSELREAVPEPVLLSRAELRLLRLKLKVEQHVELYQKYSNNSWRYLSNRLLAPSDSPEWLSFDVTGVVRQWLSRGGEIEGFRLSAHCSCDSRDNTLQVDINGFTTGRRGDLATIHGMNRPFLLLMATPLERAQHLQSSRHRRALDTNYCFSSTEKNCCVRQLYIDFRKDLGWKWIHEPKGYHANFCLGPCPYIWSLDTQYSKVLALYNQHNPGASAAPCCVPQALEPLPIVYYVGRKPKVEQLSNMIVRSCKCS
# protocolSummary: cell-based or functional assay
measure: IC50, reporter cell assay of TGFβ1 activation (nM)
Could you give me the number in nM? Just the number is fine.

(Q) Give the reported value of IC50, reporter cell assay of TGFβ1 activation for this record: Ab29 (antibody, IgG4, V domains shown) VH: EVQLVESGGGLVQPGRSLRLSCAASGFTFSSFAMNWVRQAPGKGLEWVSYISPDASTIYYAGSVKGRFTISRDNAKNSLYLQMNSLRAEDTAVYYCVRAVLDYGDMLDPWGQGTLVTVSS VL: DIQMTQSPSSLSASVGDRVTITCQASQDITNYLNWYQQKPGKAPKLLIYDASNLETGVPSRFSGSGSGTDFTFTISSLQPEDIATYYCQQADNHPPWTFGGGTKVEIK
(A) 0.458

(Q) State its IC50, reporter cell assay of TGFβ1 activation for this binder: Ab26 (antibody, IgG4, V domains shown) VH: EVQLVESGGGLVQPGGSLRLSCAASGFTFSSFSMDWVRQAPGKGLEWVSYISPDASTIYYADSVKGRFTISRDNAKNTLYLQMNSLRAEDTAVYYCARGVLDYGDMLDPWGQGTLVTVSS VL: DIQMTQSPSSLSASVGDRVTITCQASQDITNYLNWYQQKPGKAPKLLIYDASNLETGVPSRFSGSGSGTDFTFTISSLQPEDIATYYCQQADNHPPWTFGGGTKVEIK
(A) 0.341

(Q) Respond only with IC50, reporter cell assay of TGFβ1 activation recorded for Ab33 (antibody, IgG4, V domains shown) VH: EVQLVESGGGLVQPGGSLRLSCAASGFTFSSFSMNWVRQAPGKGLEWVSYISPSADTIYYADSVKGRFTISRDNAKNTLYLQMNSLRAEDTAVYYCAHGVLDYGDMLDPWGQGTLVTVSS VL: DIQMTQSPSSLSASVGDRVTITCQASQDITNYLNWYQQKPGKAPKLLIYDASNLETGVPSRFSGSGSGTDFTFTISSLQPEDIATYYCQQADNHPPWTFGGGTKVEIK
(A) 0.738
